- tgt: rat CB2 (Rattus norvegicus, UniProt Q9QZN9)
- Sequence (Q9QZN9 1-360): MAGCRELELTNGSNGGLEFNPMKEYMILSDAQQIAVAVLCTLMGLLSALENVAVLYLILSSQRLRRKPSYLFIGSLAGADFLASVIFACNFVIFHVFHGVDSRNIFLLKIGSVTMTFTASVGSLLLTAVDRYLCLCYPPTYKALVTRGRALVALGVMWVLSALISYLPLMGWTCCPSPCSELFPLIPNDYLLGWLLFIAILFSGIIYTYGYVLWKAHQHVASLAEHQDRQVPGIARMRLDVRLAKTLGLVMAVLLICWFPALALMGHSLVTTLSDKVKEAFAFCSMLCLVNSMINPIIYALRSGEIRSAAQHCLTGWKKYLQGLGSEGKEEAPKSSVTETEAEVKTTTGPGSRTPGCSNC
- assay.text: rat CB2 radioligand binding assay ([3H]CP-55,940 competition)
- Design: expressed in transfected cells; host or cells: HEK293
observable: Ki (nM)
Write it as a number; the unit nM goes unstated.

Note down Ki recorded for CCCCc1cn(C(C)(C)C)s/c1=N\C(=O)C1(C)CCC(C(=O)NC)C1(C)C (centres unmarked) [Example 100]
9.9

Note down Ki recorded for COc1ccc(Cl)cc1C(=O)/N=c1\sn(C(C)(C)C)cc1CCC#N [Example 19]
7.1

Note down Ki recorded for CCCCc1cn(C(C)(C)C)s/c1=N\C(=O)N[C@H](C(=O)NC)C(C)(C)C [Example 190]
2.4

Note down Ki recorded for CC(C)Cc1cn(C(C)(C)C)s/c1=N\C(=O)c1cc(Cl)ccc1OCCF [Example 144]
1.2

Note down Ki recorded for COc1ccc(Cl)cc1C(=O)/N=c1\sn(C(C)(C)C)cc1CCCCC#N [Example 138]
0.9

Note down Ki recorded for C=CCc1cn(C(C)(C)C)s/c1=N\C(=O)c1cc(Cl)ccc1OC [Example 6]
16

Note down Ki recorded for COc1ccc(Cl)cc1C(=O)/N=c1\sn(C(C)(C)C)cc1CC1CC1 [Example 8]
1.1

Note down Ki recorded for CCCCc1cn(C(C)(C)C)s/c1=N\C(=O)c1cc(C(F)(F)F)ccc1OC[C@@H]1CCC(=O)N1 [Example 194]
41

Note down Ki recorded for CCCCc1cn(C(C)(C)C)s/c1=N\C(=O)NC1CCC(C)CC1 (centres unmarked) [Example 191]
1.8

Note down Ki recorded for CCCCc1cn(C(C)(C)C)s/c1=N\C(=O)c1cc(C=NOC)ccc1OC [Example 57]
18

Note down Ki recorded for CCOc1ccc(C(F)(F)F)cc1C(=O)/N=c1\sn(C(C)(C)C)cc1CC(C)C [Example 146]
3.1

Note down Ki recorded for COc1ccc(Cl)cc1C(=O)/N=c1\sn(C(C)(C)C)cc1CC1CCCC1 [Example 136]
0.51

Note down Ki recorded for CCCCc1cn(C(C)(C)C)s/c1=N\C(=O)[C@]1(C)CC[C@H](NC(=O)NC)C1(C)C [Example 252]
18.8

Note down Ki recorded for COc1ccc(C#N)cc1C(=O)/N=c1\sn(C(C)(C)C)cc1Cc1ccco1 [Example 51]
8.1

Note down Ki recorded for CCCCc1cn(C(C)(C)C)s/c1=N\C(=O)c1cc(CF)ccc1OC [Example 66]
12

Note down Ki recorded for CCCCc1cn(C(C)(C)C)s/c1=N\C(=O)c1cc(C=O)ccc1OC [Example 56]
1.2

Note down Ki recorded for CCCCc1cn(C(C)(C)C)s/c1=N\C(=O)c1cc(C=NO)ccc1OC [Example 59]
3.3

Note down Ki recorded for CCCCc1cn(C(C)(C)C)s/c1=N\C(=O)OCC(C)(C)C [Example 187]
8.2

Note down Ki recorded for COc1ccc(Cl)cc1C(=O)/N=c1\sn(C(C)(C)C)cc1Cc1cscn1 [Example 52]
4.8

Note down Ki recorded for COc1ccc(Cl)cc1C(=O)/N=c1\sn(C(C)(C)C)cc1CCCC(F)(F)F [Example 142]
0.43

Note down Ki recorded for COc1ccc(Cl)cc1C(=O)/N=c1\sn(C(C)(C)C)cc1COC[C@H]1CCCO1 [Example 89]
7.9

Note down Ki recorded for CCCCc1cn(C(C)(C)C)s/c1=N\C(=O)C1(c2ccccc2)CCCC1 [Example 98]
4.8

Note down Ki recorded for CCCCc1cn(C(C)(C)C)s/c1=N\C(=O)[C@@]1(C)CC[C@@H](C(=O)OC)C1(C)C [Example 186]
1.4

Note down Ki recorded for CCCCc1cn(C(C)(C)C)s/c1=N\C(=O)[C@@]1(C)CC[C@@H](C(=O)NC)C1(C)C [Example 218]
29

Note down Ki recorded for COc1ccc(Cl)cc1C(=O)/N=c1\sn(C(C)(C)C)cc1CC1CCC1 [Example 38]
0.61

Note down Ki recorded for CCCCc1cn(C(C)(C)C)s/c1=N\C(=O)[C@]1(C)CC[C@H](C(=O)NCC(F)(F)F)C1(C)C [Example 238]
14

---

- tgt: rat CB2 (Rattus norvegicus, UniProt Q9QZN9)
- assay.text: rat CB2 radioligand binding assay ([3H]CP-55,940 competition)
- Set-up: expressed in transfected cells; host or cells: HEK293
We label by threshold. Values of Ki strictly beneath 7 nM are True. Values of 7 nM and up are False.

In plain terms, does `CCCCc1cn(C(C)(C)C)s/c1=N\C(=O)[C@@]1(C)CC[C@@H](C(=O)O)C1(C)C` come in under 7 nM for Ki?
False

In plain terms, does `CCCCc1cn(C2(C)CCC2)s/c1=N\C(=O)c1cc(Cl)ccc1OC` come in under 7 nM for Ki?
True

In plain terms, does `CCCCc1cn(C(C)(C)C)s/c1=N\C(=O)[C@@]1(C)CC[C@@H](C2=NCCO2)C1(C)C` come in under 7 nM for Ki?
False

In plain terms, does `CCCCc1cn(C(C)(C)C)s/c1=N\C(=O)c1cc(C(C)C)ccc1OC` come in under 7 nM for Ki?
False

In plain terms, does `C#Cc1ccc(OC)c(C(=O)/N=c2\sn(C(C)(C)C)cc2CCCC)c1` come in under 7 nM for Ki?
True

In plain terms, does `CCCCc1cn(C(C)(C)C)s/c1=N\C(=O)[C@@]1(C)CC[C@@H](C(=O)N(C)C)C1(C)C` come in under 7 nM for Ki?
False

In plain terms, does `COc1ccc(Cl)cc1C(=O)/N=c1\sn(C(C)(C)C)cc1CCC(C)(C)C#N` come in under 7 nM for Ki?
True

In plain terms, does `CCCCc1cn(C(C)(C)C)s/c1=N\C(=O)[C@]1(C)CC[C@H](C(=O)OC)C1(C)C` come in under 7 nM for Ki?
True

In plain terms, does `CCCCc1cn(C(C)(C)C)s/c1=N\C(=O)c1cc(C)ccc1OC` come in under 7 nM for Ki?
True

In plain terms, does `CCCCc1cn(C(C)(C)C)s/c1=N\C(=O)[C@@H]1CC[C@](C)(C(=O)NCCO)C1(C)C` come in under 7 nM for Ki?
False

In plain terms, does `CCCCc1cn(C(C)(C)C)s/c1=N\C(=O)c1cc(Cl)ccc1OCC(N)=O` come in under 7 nM for Ki?
True

In plain terms, does `COc1ccc(Cl)cc1C(=O)/N=c1\sn(C(C)(C)C)cc1COC(C)C` come in under 7 nM for Ki?
False

Value source: patent US8501794B2
